- Test system: HCC 2998
- measurement_description: NCI tumour cell line growth inhibition, 48 h
Active and inactive are the calls of the source. Rule as the data show it: active = GI50 up to about 1.1 µM and inactive = higher.
property_label: GI50

Give GI50 for `COCOc1ccc(Cn2c(=O)n(C)c(=O)c3c2ncn3C)cc1[N+](=O)[O-]` tested on HCC 2998. > 100 µM (inactive)

Give GI50 for `O=C1Nc2ccccc2/C1=C/c1ccccc1` tested on HCC 2998. 15.8 µM (inactive)

Give GI50 for `CS(=O)(=O)OCCn1c(=O)n(CCOS(C)(=O)=O)c(=O)n(CCOS(C)(=O)=O)c1=O` tested on HCC 2998. > 100 µM (inactive)

Give GI50 for CCCCCC/C=C\CCCCCCCCCc1cccc(O)c1C(=O)O [GINKGOLIC ACID 17:1] tested on HCC 2998. > 100 µM (inactive)

Give GI50 for Cc1cn(CCCCCOC(=O)NC(CCCNC(N)=O)C(=O)O)c(=O)[nH]c1=O (stereo not given) tested on HCC 2998. > 100 µM (inactive)

----------
- Test system: 786-0
- measurement_description: NCI tumour cell line growth inhibition, 48 h
Activity calls are given as the source filed them. No stated cut-off is given here; in the data, active = GI50 up to about 1.1 µM and inactive = higher.
A correct response names exactly one class from label 1 = active, label 0 = inactive

State the result this test recorded for `C=CCc1cc(-c2n[nH]c(=S)[nH]2)ccc1N/N=N/c1ccc(C(=O)O)cc1` . label 0

State the result this test recorded for COc1ccc(OC)c(CC2CCc3nc(N)nc(N)c3C2)c1 (stereo not given) . label 1

State the result this test recorded for `Cc1cc2nc3c(C#N)c(C)c(CCCl)c(Cl)n3c2cc1C` . label 0

State the result this test recorded for CC(=O)Oc1ccc(C2SCc3nc4ccccc4n32)cc1 (stereo not given) . label 0

State the result this test recorded for `COc1c2cc([N+](=O)[O-])cc1CNC(=O)CN1CCOCCOCCN(CCOCCOCC1)CC(=O)NC2` . label 0

State the result this test recorded for `Cc1c(NC(=O)CSC(=S)N2CCN(Cc3ccccc3)CC2)c(=O)n(-c2ccccc2)n1C` . label 0

State the result this test recorded for `COc1cc(/C=C2\N=C(c3ccccc3)N(c3nc4ccccc4s3)C2=O)cc(OC)c1OC` . label 0

State the result this test recorded for Cc1cn(C2CC(SCCO)C(CO)O2)c(=O)[nH]c1=O (stereo not given) . label 0

State the result this test recorded for `CO[C@@]12C[C@@H](C)[C@]34O[C@H]3C[C@]3(C)O[C@]43CC1=C(C)C(=O)O2` . label 0

State the result this test recorded for `COC(=O)/C=C/c1cc(OC)c2oc(-c3ccc(OC)c(OC)c3)c(C(=O)OC)c2c1` . label 0

----------
- Tested on: KM12
- measurement_description: NCI tumour cell line growth inhibition, 48 h
Counter-ions that a name gives are not always drawn. The source made the active and inactive calls. Rule as the data show it: active = GI50 up to about 1.1 µM and inactive = higher.
A correct response names exactly one class from active, inactive

State the result this test recorded for `Cc1cc(O)c(C(C)C)cc1CN1CCCCC1` . inactive

State the result this test recorded for `CC1=NN(c2cccc(Cl)c2)C(=N/c2nc3ccccc3s2)/C1=C\c1ccccc1O` . inactive

State the result this test recorded for CC(=O)OC1COC(n2c(=S)n(-c3ccccc3)c(=O)c3ccccc32)C(OC(C)=O)C1OC(C)=O (stereo unspecified) . inactive

State the result this test recorded for `CS(=O)(=O)N(CCC#N)c1ccc(C=O)cc1` . inactive

State the result this test recorded for `COc1ccc2cc(CNCCCCCCCCCCCCNCc3ccc4cc(OC)ccc4c3)ccc2c1` . inactive

State the result this test recorded for CC1(O)CCn2c(=O)c3cc4ccccc4cc3c(=O)n2C1O (stereo unspecified) . inactive

State the result this test recorded for `O=C(Nc1cccc(C(F)(F)F)c1)O/N=C(/Cl)CCl` . inactive

State the result this test recorded for `O=[N+]([O-])/C=C/c1ccc(Cl)cc1Cl` . inactive

State the result this test recorded for `C=CCNC(=O)/C=C\C(=O)O` . inactive

State the result this test recorded for `CC1(C)N=C(N)N=C(N)N1CCCCc1ccccc1` . active

State the result this test recorded for CN(C)c1ccc(/C=C(\NC(=O)c2ccccc2)C(=O)NC(CC(=O)O)C(=O)O)cc1 (stereo unspecified) . inactive

State the result this test recorded for `CCc1cc2c(Nc3ccccc3)c3c(nc2s1)CCCC3` . inactive

State the result this test recorded for COc1cc(C2[C@H]3C(=O)N(c4ccc(Cc5ccc(N6C(=O)[C@@H]7ON(c8ccccc8)C(c8cc(OC)c(OC)c(OC)c8)[C@@H]7C6=O)cc5)cc4)C(=O)[C@H]3ON2c2ccccc2)cc(OC)c1OC (stereo partly specified) . inactive

State the result this test recorded for `COc1cc2c3c(c1Oc1nnnn1-c1ccccc1)-c1c(ccc4c1OCO4)C[C@H]3N(C)CC2` . inactive

State the result this test recorded for `O=C1C(NCCN2CCOCC2)=C(Cl)C(=O)c2ncccc21` . inactive

State the result this test recorded for `COc1ccc(-c2cc(=O)c3c(O)cc(O)cc3o2)c(OC)c1OC` . inactive

State the result this test recorded for `Nc1nccc2c1ncn2[C@H]1C[C@H](O)[C@@H](CO)O1` . inactive

State the result this test recorded for Cc1cc(O)nc(NNC(C#N)c2ccccc2O)n1 (stereo unspecified) . inactive

State the result this test recorded for `CCCCCNC(=O)c1c(O)[nH]c(=S)[nH]c1=O` . inactive

State the result this test recorded for C=CCN1C(=O)/C(=C/c2ccccc2)N=C1SC1OC(COC(C)=O)C(OC(C)=O)C(OC(C)=O)C1OC(C)=O (stereo unspecified) . inactive

State the result this test recorded for `COc1cccc(-c2cc(=O)c3cc(C)c(C)c(C(=O)O)c3o2)c1` . inactive

State the result this test recorded for `C=CCOC(=O)N1c2ccc(O[Si](C)(C)C(C)(C)C)cc2[C@@]23O[C@@]24[C@@H]1C#C/C=C\C#C[C@]3(O)C(OC)(OC)C[C@@H]4C` . inactive

State the result this test recorded for Cc1nn(C(=O)c2ccncc2)c2c1C(c1ccc(Cl)cc1)SC(=N)N2 (stereo unspecified) . inactive

State the result this test recorded for `COc1ccc(S(=O)(=O)Nc2ccc(-c3csc(N4C(=O)/C(=C/c5ccccc5[N+](=O)[O-])N=C4c4ccccc4)n3)cc2)cc1Cl` . inactive

State the result this test recorded for `COc1cc(/C=C2\N=C(c3ccccc3)N(c3nc4ccccc4s3)C2=O)cc(OC)c1OC` . inactive

State the result this test recorded for `C=CCc1cc(-c2n[nH]c(=S)[nH]2)ccc1N/N=N/c1ccc(C(=O)O)cc1` . inactive

State the result this test recorded for `COC(=O)c1ccccc1/N=C/c1ccc(N(CCC#N)S(=O)(=O)c2ccccc2)cc1` . inactive

State the result this test recorded for O=C1NC2C(=O)N(Cc3ccccc3)C(=O)C2N1 (stereo unspecified) . inactive

State the result this test recorded for `CCOc1ccc(/C=C\c2cc(OC)c(OC)c(OC)c2)cc1` . active

State the result this test recorded for C#Cc1cccc(Nc2ncnc3cc(OCCOC)c(OCCOC)cc23)c1 [ERLOTINIB HYDROCHLORIDE] . inactive

State the result this test recorded for `CC1=NN(c2nc(N)nc(NS(=O)(=O)c3cc(C)c(Cl)cc3S)n2)C(C)(C)C1` . inactive

State the result this test recorded for `CCOC(=O)C1(N)CC1` . inactive

State the result this test recorded for `COc1ccc(C[C@H]2COC(=O)[C@@H]2Cc2ccc(Br)cc2)cc1OC` . inactive

State the result this test recorded for COC1C(C)OC(OC2CC(C)(O)Cc3cc4c(c(O)c32)C(=O)c2c(O)cc3c(c2C4=O)OC2OC3(C)C(O)C(N(C)C)C2O)C(OC)C1(C)OC (stereo unspecified) . active

State the result this test recorded for `N#CC1=C(N2CCOCC2)CCC1` . inactive

State the result this test recorded for COC(=O)C1C(C(=O)OC)C1(Br)CBr (stereo unspecified) . inactive

State the result this test recorded for `O=C(O)CS(=O)(=O)C(c1ccccc1)c1ccccc1` . inactive

State the result this test recorded for `COCn1cc(C2=C(C)C(=O)C(C)=C(C)C2=O)cn1` . inactive

State the result this test recorded for `Cc1cnc[nH]c1=O` . inactive

State the result this test recorded for Nc1nc(Cl)cc(NCC2(CO)CC(CCc3ccccc3)C2)n1 (stereo unspecified) . inactive

State the result this test recorded for `CC1(C)CCC[C@]2(C)[C@@H](C=O)C(C=O)=CC[C@@H]12` . inactive

----------
- Test system: MDA-MB-435
- measurement_description: NCI tumour cell line growth inhibition, 48 h
Active and inactive are the calls of the source. No stated cut-off is given here; in the data, active = GI50 up to about 1.1 µM and inactive = higher.
Exercise: state measured GI50 for each of the compounds provided.

Give the measured GI50 for Cc1nn(C(=O)c2ccncc2)c2c1C(c1ccc(Cl)cc1)SC(=N)N2 (centres undefined) > 10 µM (inactive)

Give the measured GI50 for CC(=O)OCC(Br)C1(C)CCC(C(C)(C)Br)O1 (centres undefined) 69.5 µM (inactive)

Give the measured GI50 for `O=C1Nc2ccccc2/C1=C\c1c(Cl)nc2n1CCS2` 12.6 µM (inactive)

Give the measured GI50 for OCC1OC(OCC(O)C(O)C(O)C(/C=N/Nc2ccccc2)=N/Nc2ccccc2)C(O)C(O)C1O (centres undefined) > 100 µM (inactive)
